Taken from patent US4272437A.

procedure_text: Mouse blood levels after intramuscular administration
Assay type: in vivo
condition_parameters: 30 minutes after IM 40 mg/kg, average of 6 mice, read-out: Mouse blood level
Task for the reader: assign each of the following compounds its reported concentration at 0.5 h.

>  <compound>
N[C@H]1C[C@@H](C2=C(C(=O)O)N3C(=O)C[C@H]3S2)C1

>  <concentration at 0.5 h>
12600 ng/mL

$$$$
>  <compound>
NCCCCC1=C(C(=O)O)N2C(=O)CC2S1 (stereo not shown)

>  <concentration at 0.5 h>
21200 ng/mL

$$$$
>  <compound>
NCCCCCC1=C(C(=O)O)N2C(=O)C[C@H]2S1

>  <concentration at 0.5 h>
34600 ng/mL

$$$$
>  <compound>
NCCOCC1=C(C(=O)O)N2C(=O)CC2S1 (stereo not shown)

>  <concentration at 0.5 h>
16500 ng/mL

$$$$
>  <compound>
NCCC1=C(C(=O)O)N2C(=O)CC2S1 (stereo not shown)

>  <concentration at 0.5 h>
21800 ng/mL

$$$$

Give measured concentration at 0.5 h for every item shown.
1. C[C@@H](O)[C@H]1C(=O)N2C(C(=O)O)=C([C@H]3C[C@H](N)C3)S[C@H]12 (relative stereo)
2. NCCCC1=C(C(=O)O)N2C(=O)CC2S1 (stereo not shown) [Example 22, Sodium 2-Aminopropylpenem-3-carboxylate]

23700 ng/mL
31500 ng/mL

---

Tested on: Staph. aureus A-9537 and 50% serum
procedure_text: MIC, tube dilution, Staph. aureus A9537 + 50% serum
Assay type: cell-based, Staphylococcus aureus
condition_parameters: Staphylococcus aureus, overnight 37° C., read-out: Minimum Inhibitory Concentration (M.I.C.)
Flag rule - MIC less than 20 µg/mL flags Y; the remaining entries get N.

>  <molecule>
COC1=C(C(=O)[O-])N2C(=O)C[C@H]2S1.[Na+] [Preparation 17, Sodium 2-Methoxypenem-3-carboxylate]

>  <system_tested>
Staph. aureus A-9537 and 50% serum

>  <group>
N

$$$$
>  <molecule>
Cc1cc(CC2=C(C(=O)O)N3C(=O)CC3S2)on1 (stereo not drawn)

>  <system_tested>
Staph. aureus A-9537 and 50% serum

>  <group>
N

$$$$
>  <molecule>
C[C@@H](O)[C@H]1C(=O)N2C(C(=O)O)=C(COCCN)S[C@H]12 (relative stereo)

>  <system_tested>
Staph. aureus A-9537 and 50% serum

>  <group>
Y

$$$$
>  <molecule>
O=C([O-])C1=C(Cc2ccco2)S[C@@H]2CC(=O)N12.[Na+]

>  <system_tested>
Staph. aureus A-9537 and 50% serum

>  <group>
N

$$$$

Identify whether the molecule CC1=C(C(=O)O)N2C(=O)[C@H]([C@H](C)O)[C@H]2S1 (relative stereo) records MIC below 20 µg/mL.
N

Identify whether the molecule NC1CC1C1=C(C(=O)O)N2C(=O)CC2S1 (stereo not drawn) records MIC below 20 µg/mL.
Y

---

Task for the reader: assign each of the following molecules its reported MIC.
System: Str. pyogenes A-9604
Give the value; after it, write the unit.

Here are 3 molecules together with their reported answers.
>  <molecule>
CC1=C(C(=O)O)N2C(=O)[C@@H]([C@H](C)O)[C@H]2S1 (relative stereo) [Example 61]

>  <MIC>
0.06 µg/mL

$$$$
>  <molecule>
NCCOCC1=C(C(=O)O)N2C(=O)CC2S1 (centres unmarked) [Example 86]

>  <MIC>
0.13 µg/mL

$$$$
>  <molecule>
NC=NCC1=C(C(=O)O)N2C(=O)CC2S1 (centres unmarked) [16 (6)]

>  <MIC>
4 µg/mL

$$$$

Give measured MIC for every item shown.
1. CC1=C(C(=O)O)N2C(=O)[C@H]([C@H]3COC(C)(C)O3)[C@H]2S1 (relative stereo) [Example 104]
2. N[C@H]1C[C@@H](C2=C(C(=O)O)N3C(=O)C[C@H]3S2)C1 [Example 78]

1. 32 µg/mL
2. 0.06 µg/mL

Give measured MIC for every item shown.
1. CC1=C(C(=O)O)N2C(=O)[C@H]([C@H](C)O)[C@H]2S1 (relative stereo) [Example 59]
2. NC1CC1C1=C(C(=O)O)N2C(=O)CC2S1 (centres unmarked) [Example 99]
3. O=C(O)C1=C(c2ccco2)SC2CC(=O)N12 (centres unmarked) [Preparation 13, 2-(2'-Furyl)penem-3-carboxylic Acid]

1. 125 µg/mL
2. 1 µg/mL
3. 1 µg/mL
